Record form. Attribute: IC50. Fill in for each entry.

Record `COc1cc(-c2nn(-c3ccc(N(C)C(=O)/C=C/CN(C)C)cc3)c3ncnc(N)c23)ccc1C` / EGFR (Homo sapiens), IC50 recorded as 100 to 1000 nM

So the reported IC50 for `CN(C)C/C=C/C(=O)Nc1ccc(-n2nc(-c3ccc(Cl)cc3)c3c(N)ncnc32)cc1` , on EGFR (Homo sapiens), turned out to be < 100 nM

Let me check: `Cc1ccc(-c2nn([C@@H]3CCN(C(=O)/C=C/CN(C)C)C3)c3ncnc(N)c23)cc1` , system EGFR (Homo sapiens), measured IC50 is 100 to 1000 nM

Summary: `COc1ccc(-c2nn([C@@H]3CCN(C(=O)/C=C/CN(C)C)C3)c3ncnc(N)c23)cc1` , EGFR (Homo sapiens), IC50 = > 1000 nM

The molecule `C=CC(=O)N(C)c1cccc(-n2nc(-c3ccc(Cl)cc3)c3c(N)ncnc32)c1` on EGFR (Homo sapiens): IC50 was < 100 nM

Reading of IC50 for `COc1cccc(-c2nn([C@@H]3CCN(C(=O)/C=C/CN(C)C)C3)c3ncnc(N)c23)c1` with EGFR (Homo sapiens): 100 to 1000 nM

Per the reported EGFR (Homo sapiens) data, `CN(C/C=C/C(=O)N1CC[C@@H](n2nc(-c3ccc(F)cc3)c3c(N)ncnc32)C1)C1CCC1` has IC50 of > 1000 nM

Recorded IC50 for `CN(C(=O)/C=C/CN(C)C1CC1)c1cccc(-n2nc(-c3ccc(Cl)cc3)c3c(N)ncnc32)c1` on EGFR (Homo sapiens) was < 100 nM

// molecule `CN(C)C/C=C/C(=O)N(C)c1ccc(-n2nc(-c3ccc(Cl)cc3)c3c(N)ncnc32)cc1` , assay EGFR (Homo sapiens), IC50 value: 100 to 1000 nM

The molecule `CN(C)C/C=C/C(=O)N(C)c1ccc(-n2nc(-c3ccc(Cl)cc3)c3c(N)ncnc32)nc1` on EGFR (Homo sapiens): IC50 was > 1000 nM

I looked up `COc1cc(-c2nn([C@@H]3CCN(C(=O)/C=C/CN(C)C)C3)c3ncnc(N)c23)ccc1C` and its IC50 for EGFR (Homo sapiens) was < 100 nM

EGFR (Homo sapiens) assay, molecule `COc1cc(-c2nn(-c3cccc(N(C)C(=O)/C=C/CN(C)C4CCC4)c3)c3ncnc(N)c23)ccc1C` , recorded IC50 = < 100 nM

Value sought: IC50, system EGFR (Homo sapiens), item `CN(C)C/C=C/C(=O)N1CC[C@@H](n2nc(-c3ccc(F)cc3)c3c(N)ncnc32)C1` . Result: > 1000 nM

Recorded IC50 for `COc1cc(-c2nn([C@@H]3CCN(C(=O)/C=C/CN(C)C)C3)c3ncnc(N)c23)ccc1F` on EGFR (Homo sapiens) was 100 to 1000 nM

The recorded IC50 with EGFR (Homo sapiens) for `CN(C)C/C=C/C(=O)N1CC[C@@H](n2nc(-c3ccc(Cl)cc3F)c3c(N)ncnc32)C1` was 100 to 1000 nM

Log: EGFR (Homo sapiens), molecule `CN(C/C=C/C(=O)N1CC[C@@H](n2nc(-c3ccc(Cl)cc3)c3c(N)ncnc32)C1)C1CCC1` , IC50 = 100 to 1000 nM

The origin of these recorded values is patent US9546172B2.
